Target: T1, corticotropin-releasing hormone (CRH) peptide (human and mouse (same sequence), not fully specified)
T1 peptide: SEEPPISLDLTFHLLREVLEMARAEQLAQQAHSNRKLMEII
Assay: cell-based or functional assay
Quantity Kind: hCRHR1 Luciferase Reporter Assay IC50 (nM)
A number alone suffices; assume nM.

As a guide, the following entries are already answered.
1. PR302341-57 (antibody, human IgG1, kappa, V domains shown) VH: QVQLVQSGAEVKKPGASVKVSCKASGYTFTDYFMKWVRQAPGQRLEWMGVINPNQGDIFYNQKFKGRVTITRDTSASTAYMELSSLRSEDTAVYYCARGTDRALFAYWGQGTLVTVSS VL: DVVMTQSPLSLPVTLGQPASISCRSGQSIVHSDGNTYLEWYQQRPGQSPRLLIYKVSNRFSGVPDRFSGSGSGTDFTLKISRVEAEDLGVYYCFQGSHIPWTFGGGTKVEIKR = 0.573
2. PR302341-29 (antibody, human IgG1, kappa, V domains shown) VH: QVQLVQSGAEVKKPGASVKVSCKASGYTFTDYFMKWVRQAPGQGLEWMGVINPNNADIFYNQKFKGRVTMTVDKSISTAYMELSRLRSDDTAVYYCARGTDRALFAYWGQGTLVTVSS VL: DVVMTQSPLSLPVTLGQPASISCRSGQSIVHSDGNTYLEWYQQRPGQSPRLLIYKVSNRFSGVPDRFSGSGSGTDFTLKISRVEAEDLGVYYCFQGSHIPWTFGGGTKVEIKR = 0.427
3. PR302341-45 (antibody, human IgG1, kappa, V domains shown) VH: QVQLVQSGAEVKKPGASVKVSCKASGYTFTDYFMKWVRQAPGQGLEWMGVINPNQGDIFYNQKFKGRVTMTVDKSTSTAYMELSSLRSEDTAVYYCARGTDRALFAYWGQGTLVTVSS VL: DVVMTQTPLSSPVTLGQPASISCRSGQSIVHSDGNTYLEWYQQRPGQPPRLLIYKVSNRFSGVPDRFSGSGAGTDFTLKISRVEAEDLGVYYCFQGSHIPWTFGGGTKVEIKR = 0.35
4. PR302341-33 (antibody, human IgG1, kappa, V domains shown) VH: QVQLVQSGAEVKKPGASVKVSCKASGYTFTDYFMKWVRQAPGQGLEWMGVINPNNADIFYNQKFKGRVTMTVDKSISTAYMELSRLRSDDTAVYYCARGTDRALFAYWGQGTLVTVSS VL: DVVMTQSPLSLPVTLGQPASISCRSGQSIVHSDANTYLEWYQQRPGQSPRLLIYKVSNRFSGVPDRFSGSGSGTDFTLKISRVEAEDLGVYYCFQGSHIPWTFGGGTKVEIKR = 0.821

Consider the record given below.
Query :: Could you share which hCRHR1 Luciferase Reporter Assay IC50 value was measured for PR302341-65 (antibody, human IgG1, kappa, V domains shown) VH: QVQLVQSGAEVKKPGASVKVSCKASGYTFTDYFMKWVRQAPGQRLEWMGVINPNSGDIFYNQKFKGRVTITRDTSASTAYMELSSLRSEDTAVYYCARGTDRALFAYWGQGTLVTVSS VL: DVVMTQSPLSLPVTLGQPASISCRSGQSIVHSSGNTYLEWYQQRPGQSPRLLIYKVSNRFSGVPDRFSGSGSGTDFTLKISRVEAEDLGVYYCFQGSHIPWTFGGGTKVEIKR ?
Result :: 3.12
